Assay: yeast display, Sf9 membrane polyspecificity reagent, FACS + sequencing; frameworks hold sequencing errors
endpoint: polyreactivity (PSR sort gate)

# count of solved cases: 4
QVQLVESGGGLVQAGGSLRLSCAASGRIIPNNAMGWYRQAPGKERELVAAITRGGTTYADSVKGRFTISRDNAKNTVYLQMNSLKPEDTAVYYCDTAAVKYGYRYYYWGQGTQVTVSS | high polyreactivity
QVQLVESGGGLVQAGGSLRLSCAASGRTFYSYAMGWYRQAPGKERELVAAISRGGNTYYADSVKGRFTISRDNAKNTVSLQMNSLNPEDTAVYYCAVVRVTYYASIYHRGYDYWGQGTQVTVSS | low polyreactivity
PVQLVESGGGLVQAGGSLRLSCAASGIIFVKYAMGWYRQAPGKERELVAAISTRGGSTYYADSVKGRFTISRDNAMNTVYLQMNSLKPEDTAVYYCAADATRKSQLPNTVPYDYWGQGTQVTVSS | high polyreactivity
QVQLVESGGGLVQAGGSLRLSCADSGSIQYYAMGWYRQAPGKERELVAAITWSGVSTSYADSVKGRFTISRDNAKNTVYLQMNRLKPEDTAVYYCNKDPGTLYGDLDSWGQGTQVTVSS | low polyreactivity

polyreactivity (PSR sort gate) lookup needed for QVQLVESGGGLLQAGGSLRLSSAASGFIFTKYNMGWYRQAPGKERELVDAIDTGGNTYADSVKGRFTISRDNAKNTVYLQMNSLKPEDTAVYYCSVDGGEFSSYGYWGQGTQVTVSS , thanks.
low polyreactivity
